B1: tRNA (parent)
chain: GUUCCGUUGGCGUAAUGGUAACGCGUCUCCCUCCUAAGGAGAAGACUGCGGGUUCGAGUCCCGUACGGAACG

Variants of: B1
Assay: yeast fitness relative to wild type (ratio to wild type); higher = fitter; tRNA-Arg(CCU), competitive growth, 37 C, YPD
Variants at the floor of the assay were thinned out.
observed-property: yeast fitness
Give bare numbers.

Worked examples, 5 variants total:
>>> df
            mutations  observed_property  measurement
0  U8C U32G G50A A69U      yeast fitness        0.557
1            U7C G68A      yeast fitness         0.87
2           G38A G56A      yeast fitness         1.02
3           C30A A40C      yeast fitness        0.712
4           U16A U35C      yeast fitness         0.91

Quick one: give me yeast fitness for each item below, same order please.
1. C27G U47C A70U
2. A15U C31U C33U G67A
3. C4A U26A A45U
4. A43C U47A

RESULT:
1. 0.545
2. 0.642
3. 0.656
4. 0.732

Origin of measurements: the RNAGym collection of RNA variant scans (doi:10.1126/science.aae0568)
